experiment: Cytotoxicity against human HeLa cells measured after 3 days by ATPlite kit assay; assay type: toxicity, cell-based; conditions: time 3 day
Below, each of the molecules is paired with its reported CC50 at 72 h value.

- smiles-entry: "COc1cc(C(=O)NC[C@](O)(c2cc3c(c(-c4ccc(F)cc4)n2)OC[C@]3(C)NS(C)(=O)=O)C(F)(F)F)cc2cccnc12"
  CC50 at 72 h: "10.2 µM"
- smiles-entry: "COc1cc(C(=O)NC[C@](O)(c2nc(-c3ccc(F)cc3)c(Cl)c(C(C)(C)O)c2F)C(F)(F)F)cc2cc(C)cnc12"
  CC50 at 72 h: "45.8 µM"
- smiles-entry: "CCc1cc2cc(C(=O)NC[C@](O)(c3cc(C(C)(C)O)c(F)c(-c4ccc(F)cc4)n3)C(F)(F)F)cc(OC)c2nn1"
  CC50 at 72 h: "21.8 µM"
- smiles-entry: "COc1cc(C(=O)NC[C@](O)(c2cc(C(C)(C)O)c(F)c(-c3ccc(F)cc3)n2)C(F)(F)F)cc2cc(C)c(C)nc12"
  CC50 at 72 h: "18.4 µM"
- smiles-entry: "COc1nc2c(OC)cc(C(=O)NC[C@](O)(c3cc(C(C)(C)O)c(F)c(-c4ccc(F)cc4)n3)C(F)(F)F)cc2cc1C"
  CC50 at 72 h: "31 µM"
- smiles-entry: "COc1cc(C(=O)NC[C@](O)(c2cc3c(c(-c4ccc(F)cc4)n2)OC[C@]3(C)NS(C)(=O)=O)C(F)(F)F)ccc1OC[C@@H](C)O"
  CC50 at 72 h: "54.3 µM"
- smiles-entry: "COc1cc(C(=O)NC[C@](O)(c2cc(C(C)(C)O)c(F)c(-c3ccc(F)cc3)n2)C(F)(F)F)cc2cc(C)nnc12"
  CC50 at 72 h: "27.7 µM"
- smiles-entry: "COc1cc(C(=O)NC[C@](O)(c2cc(C(C)(C)O)c(F)c(-c3ccc(F)cc3)n2)C(F)(F)F)cc2cc(C)c(F)nc12"
  CC50 at 72 h: "13.1 µM"
- smiles-entry: "COc1cc(C(=O)NC[C@](O)(c2cc3c(c(-c4ccc(F)cc4)n2)OC[C@]3(C)NC(C)=O)C(F)(F)F)ccc1OC[C@@H](C)O"
  CC50 at 72 h: "73.2 µM"
- smiles-entry: "COc1cc(C(=O)NC[C@](O)(c2cc3c(c(-c4ccc(F)cc4)n2)OC[C@]3(C)NC(C)=O)C(F)(F)F)cc2cccnc12"
  CC50 at 72 h: "12.7 µM"
- smiles-entry: "COc1cc(C(=O)NC[C@](O)(c2cc(C(C)(C)O)c(Cl)c(-c3ccc(F)cc3)n2)C(F)(F)F)cc2cc(C)cnc12"
  CC50 at 72 h: "21.7 µM"
- smiles-entry: "CC(=O)N[C@@]1(C)COc2c1cc([C@@](O)(CNC(=O)c1cc(OC3CC3)c3ncc(F)cc3c1)C(F)(F)F)nc2-c1ccc(F)cc1"
  CC50 at 72 h: "14 µM"
- smiles-entry: "COc1cc(C(=O)NC[C@](O)(c2cc(C(C)(C)O)c(F)c(-c3ccc(F)cc3)n2)C(F)(F)F)cc2cc(C(F)(F)F)cnc12"
  CC50 at 72 h: "12.6 µM"
- smiles-entry: "COc1cc(C(=O)NC[C@](O)(c2cc(C(C)(C)O)c(F)c(-c3ccc(F)cc3)n2)C(F)(F)F)cc2cc(C)cnc12"
  CC50 at 72 h: "14.6 µM"
- smiles-entry: "COc1cc(C(=O)NC[C@](O)(c2cc(C(C)(C)O)c(F)c(-c3ccc(F)cc3)n2)C(F)(F)F)cc2cc(F)nnc12"
  CC50 at 72 h: "17.3 µM"
- smiles-entry: "COc1cc(C(=O)NC[C@](O)(c2cc(C(C)(C)O)c(F)c(-c3ccc(F)cc3)n2)C(F)(F)F)cc2cc(C3CC3)cnc12"
  CC50 at 72 h: "12.9 µM"
- smiles-entry: "COc1cc(C(=O)NC[C@](O)(c2cc(C(C)(C)O)c(F)c(-c3ccc(F)cc3)n2)C(F)(F)F)cc2cccnc12"
  CC50 at 72 h: "16 µM"
- smiles-entry: "CC(=O)N[C@@]1(C)COc2c1cc([C@@](O)(CNC(=O)c1cc(OC3CC3)c3ncccc3c1)C(F)(F)F)nc2-c1ccc(F)cc1"
  CC50 at 72 h: "46.8 µM"
- smiles-entry: "COc1cc(C(=O)NC[C@](O)(c2cc3c(c(-c4ccc(F)cc4)n2)OC[C@]3(C)NS(C)(=O)=O)C(F)(F)F)cn2cc(CO)nc12"
  CC50 at 72 h: "> 90.9 µM"
- smiles-entry: "COc1cc(C(=O)NC[C@](O)(c2cc(C(C)(C)O)c(F)c(-c3ccc(F)cc3)n2)C(F)(F)F)cc2cc(C(F)F)nnc12"
  CC50 at 72 h: "18.3 µM"
- smiles-entry: "COc1cc(C(=O)NC[C@](O)(c2cc(C(C)(C)O)c(F)c(-c3ccc(F)cc3)n2)C(F)(F)F)cc2cc(C(F)F)cnc12"
  CC50 at 72 h: "13.2 µM"
- smiles-entry: "COc1cc(C(=O)NC[C@](O)(c2nc(-c3ccc(F)cc3)c(F)c(C(C)(C)O)c2F)C(F)(F)F)cc2cc(C)cnc12"
  CC50 at 72 h: "43 µM"
- smiles-entry: "COc1cc(C(=O)NC[C@](O)(c2cc(C(C)(C)O)c(F)c(-c3ccc(F)cc3)n2)C(F)(F)F)cc2cc(OC(F)F)nnc12"
  CC50 at 72 h: "8.9 µM"
- smiles-entry: "COc1cc(C(=O)NC[C@](O)(c2cc3c(c(-c4ccc(F)cc4)n2)OC[C@]3(C)NS(C)(=O)=O)C(F)(F)F)cc2cc(C)cnc12"
  CC50 at 72 h: "11.4 µM"
- smiles-entry: "COc1cc(C(=O)NC[C@](O)(c2cc(C(C)(C)O)c(F)c(-c3ccc(F)cc3)n2)C(F)(F)F)cc2cc(CF)cnc12"
  CC50 at 72 h: "39.8 µM"
- smiles-entry: "COc1cc(C(=O)NC[C@](O)(c2cc(C(C)(C)O)c(F)c(-c3ccc(F)cc3)n2)C(F)(F)F)cc2cc(Cl)nnc12"
  CC50 at 72 h: "9.9 µM"
- smiles-entry: "COc1cc(C(=O)NC[C@](O)(c2cc3c(c(-c4ccc(F)cc4)n2)OC[C@]3(C)N)C(F)(F)F)ccc1OC[C@@H](C)O"
  CC50 at 72 h: "58.4 µM"
- smiles-entry: "COc1cc(C(=O)NC[C@](O)(c2cc(C(C)(C)O)c(F)c(-c3ccc(F)cc3)n2)C(F)(F)F)cc2cc(C3CC3)nnc12"
  CC50 at 72 h: "8.8 µM"
- smiles-entry: "COc1cc(C(=O)NC[C@](O)(c2cc3c(c(-c4ccc(F)cc4)n2)OC[C@]3(C)NS(C)(=O)=O)C(F)(F)F)cc2nc(N)sc12"
  CC50 at 72 h: "13.6 µM"
- smiles-entry: "COc1cc(C(=O)NC[C@](O)(c2cc3c(c(-c4ccc(F)cc4)n2)OC[C@]3(C)NC(C)=O)C(F)(F)F)cc2cc(C)cnc12"
  CC50 at 72 h: "14.5 µM"

----------
test: Inhibition of RSV RNA polymerase assessed as RNA products using […] template by SPA primer extension enzymatic assay; parameters: species or system Respiratory syncytial virus
pIC50: −log10 of the molar value.
Below, each of the compounds is paired with its reported pIC50 value.

- smiles-entry: "COc1cc(C(=O)NC[C@](O)(c2cc3c(c(-c4ccc(F)cc4)n2)OC[C@]3(C)NC(C)=O)C(F)(F)F)cc2cc(C)cnc12"
  pIC50: 9.08
- smiles-entry: "COc1cc(C(=O)NC[C@](O)(c2cc(C(C)(C)O)c(F)c(-c3ccc(F)cc3)n2)C(F)(F)F)cc2cc(C)c(C)nc12"
  pIC50: 9.02
- smiles-entry: "COc1cc(C(=O)NC[C@](O)(c2cc3c(c(-c4ccc(F)cc4)n2)OC[C@]3(C)NS(C)(=O)=O)C(F)(F)F)cc2nc(N)sc12"
  pIC50: 9.28
- smiles-entry: "COc1cc(C(=O)NC[C@](O)(c2cc(C(C)(C)O)c(F)c(-c3ccc(F)cc3)n2)C(F)(F)F)cc2cc(C(F)F)nnc12"
  pIC50: 9.40
- smiles-entry: "COc1cc(C(=O)NC[C@](O)(c2cc(C(C)(C)O)c(Cl)c(-c3ccc(F)cc3)n2)C(F)(F)F)cc2cc(C)cnc12"
  pIC50: 8.85
- smiles-entry: "COc1cc(C(=O)NC[C@](O)(c2cc(C(C)(C)O)c(F)c(-c3ccc(F)cc3)n2)C(F)(F)F)cc2cc(C)nnc12"
  pIC50: 9.54
- smiles-entry: "COc1cc(C(=O)NC[C@](O)(c2nc(-c3ccc(F)cc3)c(F)c(C(C)(C)O)c2F)C(F)(F)F)cc2cc(C)cnc12"
  pIC50: 9.60
- smiles-entry: "CC(=O)N[C@@]1(C)COc2c1cc([C@@](O)(CNC(=O)c1cc(OC3CC3)c3ncc(F)cc3c1)C(F)(F)F)nc2-c1ccc(F)cc1"
  pIC50: 8.44
- smiles-entry: "COc1cc(C(=O)NC[C@](O)(c2cc(C(C)(C)O)c(F)c(-c3ccc(F)cc3)n2)C(F)(F)F)cc2cccnc12"
  pIC50: 9.20
- smiles-entry: "COc1cc(C(=O)NC[C@](O)(c2cc3c(c(-c4ccc(F)cc4)n2)OC[C@]3(C)NS(C)(=O)=O)C(F)(F)F)cn2cc(CO)nc12"
  pIC50: 8.47
- smiles-entry: "COc1cc(C(=O)NC[C@](O)(c2nc(-c3ccc(F)cc3)c(Cl)c(C(C)(C)O)c2F)C(F)(F)F)cc2cc(C)cnc12"
  pIC50: 8.54
- smiles-entry: "COc1cc(C(=O)NC[C@](O)(c2cc(C(C)(C)O)c(F)c(-c3ccc(F)cc3)n2)C(F)(F)F)cc2cc(C3CC3)nnc12"
  pIC50: 8.93
